# TARGET: Cysteinyl leukotriene receptor 1 (Cavia porcellus, UniProt Q2NNR5)
# Sequence (Q2NNR5 whole entry): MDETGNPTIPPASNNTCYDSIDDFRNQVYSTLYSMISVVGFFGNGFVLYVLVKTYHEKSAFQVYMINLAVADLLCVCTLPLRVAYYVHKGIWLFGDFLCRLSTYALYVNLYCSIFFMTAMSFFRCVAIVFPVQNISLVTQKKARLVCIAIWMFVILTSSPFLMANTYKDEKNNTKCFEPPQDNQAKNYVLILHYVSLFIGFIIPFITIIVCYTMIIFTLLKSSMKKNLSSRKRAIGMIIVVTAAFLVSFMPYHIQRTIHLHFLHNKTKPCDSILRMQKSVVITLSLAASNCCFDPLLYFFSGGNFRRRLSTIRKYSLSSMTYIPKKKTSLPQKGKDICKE
# TEST_NAME: In vitro binding affinity towards Cysteinyl leukotriene D4 receptor by using [3H]LTD4 binding assay in guinea pig lung membranes
# Type: cell membranes, Membrane
MEASUREMENT_TYPE: Ki (nM)

compound=O=C(O)c1ccc(CCNC(=O)c2ccc3ccc(OCc4ccc(-c5ccccc5)cn4)cc3c2)cc1 endpoint_value=79
compound=O=C(O)c1ccc(CCNC(=O)c2ccc3ccc(OCc4ccc5ccccc5n4)cc3c2)cc1 endpoint_value=1.05
compound="CC(C(=O)NCc1ccc(C(=O)O)cc1)c1ccc2cc(OCc3ccc4ccccc4n3)ccc2c1 (stereo not drawn)" endpoint_value=70
compound=O=C(Nc1cccc2c(=O)cc(C(=O)O)oc12)c1ccc2ccc(OCc3ccc4ccccc4n3)cc2c1 endpoint_value=30
compound=O=C(O)CCCc1ccc(NC(=O)Cc2ccc(OCc3ccc4ccccc4n3)cc2)cc1 endpoint_value=7.3
compound="CC(C(=O)NCc1cccc(-c2nnn[nH]2)c1)c1ccc2cc(OCc3ccc4ccccc4n3)ccc2c1 (stereo not drawn)" endpoint_value=29
compound="CC(C(=O)Nc1ccc(C(=O)O)cc1)c1ccc2cc(OCc3ccc4ccccc4n3)ccc2c1 (stereo not drawn)" endpoint_value=118
compound="CC(C(=O)Nc1ccc(CCCC(=O)O)cc1)c1ccc2cc(OCc3ccc4ccccc4n3)ccc2c1 (stereo not drawn)" endpoint_value=38
compound=CN(C(=O)Cc1ccc(OCc2ccc3ccccc3n2)cc1)c1ccc(CCCC(=O)O)cc1 endpoint_value=297
compound=O=C(Cc1ccc(OCc2ccc3ccccc3n2)cc1)Nc1ccc(Cc2nnn[nH]2)cc1 endpoint_value=108
compound=O=C(Nc1ccc(CCCc2nnn[nH]2)cc1)c1ccc(OCc2ccc3ccccc3n2)cc1 endpoint_value=595
compound="O=C(O)c1ccc(CCNC(=O)C2CCc3ccc(OCc4ccc5ccccc5n4)cc3O2)cc1 (stereo not drawn)" endpoint_value=237
compound=O=C(O)c1ccc(Cc2noc(-c3ccc4ccc(OCc5ccc6ccccc6n5)cc4c3)n2)cc1 endpoint_value=15
compound=Cn1cc(CC(=O)NCc2ccc(-c3nn[nH]n3)cc2)c2cc(OCc3ccc4ccccc4n3)ccc21 endpoint_value=1050
compound=O=C(O)c1ccc(CCCOc2ccc3ccc(OCc4ccc5ccccc5n4)cc3c2)cc1 endpoint_value=5.6
compound=O=C(O)Cc1ccc(CCNS(=O)(=O)c2ccc3ccc(OCc4ccc5ccccc5n4)cc3c2)cc1 endpoint_value=2.4
compound=Cc1ccccc1S(=O)(=O)NC(=O)c1ccc(CCNC(=O)c2ccc3ccc(OCc4ccc5ccccc5n4)cc3c2)cc1 endpoint_value=15
compound=O=C(Nc1cccc2c(=O)cc(C(=O)O)oc12)c1ccc(OCc2ccc3ccccc3n2)cc1 endpoint_value=168
